measured-on: SGLT1 (Homo sapiens)
Sequence (P13866 whole entry): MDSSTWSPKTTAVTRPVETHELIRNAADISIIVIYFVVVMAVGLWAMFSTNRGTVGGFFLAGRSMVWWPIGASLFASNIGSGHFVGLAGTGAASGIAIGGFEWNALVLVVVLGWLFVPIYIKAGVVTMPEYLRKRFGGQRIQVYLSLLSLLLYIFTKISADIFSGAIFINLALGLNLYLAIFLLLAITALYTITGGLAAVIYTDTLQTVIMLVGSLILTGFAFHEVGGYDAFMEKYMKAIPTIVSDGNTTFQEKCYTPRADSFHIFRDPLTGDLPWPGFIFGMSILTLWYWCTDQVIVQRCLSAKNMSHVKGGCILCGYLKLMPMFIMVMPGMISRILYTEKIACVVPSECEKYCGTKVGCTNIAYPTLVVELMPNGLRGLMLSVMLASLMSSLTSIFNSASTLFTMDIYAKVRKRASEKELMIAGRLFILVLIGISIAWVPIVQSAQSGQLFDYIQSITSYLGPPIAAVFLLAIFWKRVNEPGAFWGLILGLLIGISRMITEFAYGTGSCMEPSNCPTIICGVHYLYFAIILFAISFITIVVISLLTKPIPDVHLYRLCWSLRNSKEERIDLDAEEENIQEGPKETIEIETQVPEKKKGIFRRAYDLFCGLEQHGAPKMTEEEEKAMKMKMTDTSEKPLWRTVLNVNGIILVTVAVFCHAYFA
test-description: 14C-AMG uptake in BHK cells transfected with SGLT1
experimental-parameters: 37° C., 90 min
pIC50: −log10 of the molar value.
experimental-readout: pIC50

Sample answers from the record:
Cc1cccc(C)c1Nc1c(-c2ccccc2-c2cccc(C(=O)O)c2)nc2ccccn12; < 5.00
CNc1nnc(-c2c(-c3nc4ccc(F)cn4c3Nc3c(C)cccc3C)c3ccccc3n2C)o1; 5.00 to 6.00

Name the recorded pIC50 for Cc1cccc(C)c1Nc1c(-c2ccccc2-c2nnc(N)o2)nc2ccc(F)cn12 . < 5.00

Name the recorded pIC50 for CCNc1nnc(-c2ccccc2-c2nc3ccc(F)cn3c2Nc2c(C)cccc2C)o1 . 5.00 to 6.00

Name the recorded pIC50 for Cc1cccc(C)c1Nc1c(-c2ccccc2-c2cccc(C(N)=O)c2)nc2ccccn12 . 5.00 to 6.00

Name the recorded pIC50 for Cc1cccc(C)c1Nc1c(-c2ccccc2-c2ccc(C(N)=O)o2)nc2ccc(F)cn12 . 5.00 to 6.00

Name the recorded pIC50 for Cc1cccc(C)c1Nc1c(-c2ccccc2-c2cccs2)nc2ccc(F)cn12 . < 5.00

Name the recorded pIC50 for Cc1cccc(C)c1Nc1c(-c2ccccc2-c2nccs2)nc2ccc(F)cn12 . < 5.00

Name the recorded pIC50 for Cc1nc(-c2ccccc2-c2nc3ccc(F)cn3c2Nc2c(C)cccc2C)no1 . 5.00 to 6.00

Name the recorded pIC50 for Cc1cccc(C)c1Nc1c(-c2ccccc2-c2nnc(N(C)C)o2)nc2ccc(F)cn12 . 5.00 to 6.00

Name the recorded pIC50 for Cc1cccc(C)c1Nc1c(-c2c(Cl)cccc2-c2nnc(N)o2)nc2ccc(F)cn12 . < 5.00
